studyTarget: Nurr1-LBD (Mus musculus)
Construct: transfected with pCMV-fNurr1, pGAL-Nurr1(LBD), pGAL-Nor1(LBD) or pGAL-Nur77(LBD) and reporter construct; expressed in transfected cells; host or cells: SK-N-BE(2)C (human neuroblastoma), N27-A (rat dopaminergic), MN9D (murine dopaminergic)
Sequence (Q06219 360-595 limits assumed): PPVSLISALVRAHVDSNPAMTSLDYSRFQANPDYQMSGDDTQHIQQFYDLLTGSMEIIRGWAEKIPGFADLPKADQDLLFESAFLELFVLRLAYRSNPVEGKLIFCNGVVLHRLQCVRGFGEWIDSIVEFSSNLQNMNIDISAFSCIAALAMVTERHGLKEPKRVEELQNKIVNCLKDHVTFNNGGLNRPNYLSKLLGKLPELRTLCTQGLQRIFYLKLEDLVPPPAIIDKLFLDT
protocolSummary: Luciferase reporter assay, Nurr1-LBD, SK-N-BE(2)C cells
Type: cell-based
assaySetup: Nurr1 activation, Supplementary Table 1
endpoint: Maximum fold activity (fold)
Write down the numeric answer in fold and omit the unit.

Given the entry "CCN1CCN(c2cc(NCCNc3ccnc4cc(Cl)ccc34)nc(N3CCN(CC)CC3)n2)CC1" , report its measured Maximum fold activity. 9.50

Moving on to Cc1cc(NC2CCCC(Nc3ccnc4cc(Cl)ccc34)C2)nc(N2CCOCC2)n1 (stereo not drawn) 5.71

Moving on to Cc1cc(N2CCCCC2)nc(NC2CCCC(Nc3ccnc4cc(Cl)ccc34)C2)n1 (stereo not drawn) 4.83
